- System: UO-31 renal
- ASSAY SUMMARY: NCI-60 one-dose screen, 48 h (100 = growth as untreated, 0 = no growth, -100 = all killed)
- TEST PARAMETERS: 10 µM unless noted
Compounds without any hit were thinned out: in the full panel of roughly 83,000, 20% have a hit. Calls of active or inactive are those of the source. Rule for the calls: active = growth percent below 10; inactive = the rest.
Each entry below lists one item and its recorded growth value.

Field: example entries. Status: answers known.
query: Please look up its growth: N/C(=N\C(N)=N\c1nc2ccccc2s1)c1ccnc(Cl)c1
result: 56.5% (inactive)

query: growth lookup needed for O=C1/C(=C/c2ccccc2Cl)CCc2ccccc21 , thanks.
result: 97.4% (inactive)

query: Suppose we examine the molecule O=C(CN1CCN(c2ccc(Cl)cc2)CC1)N1CCN(c2nnc(-c3ccc(Cl)cc3)c(-c3ccc(Cl)cc3)n2)CC1 ; what growth value has been reported?
result: 37.9% (inactive)

query: So what's the measured growth for this one? N#CC1c2ccccc2C=CN1C(=O)N(c1ccccc1)c1ccccc1 (stereo not given)
result: 36.5% (inactive)

We now examine a further molecule.
query: Value lookup for growth; key = CCOC(=O)C(C(=O)OCC)C1CCCCC1
result: 91.8% (inactive)

* * *

- Test system: UO-31 renal
- ASSAY SUMMARY: NCI-60 one-dose screen, 48 h (100 = growth as untreated, 0 = no growth, -100 = all killed)
- TEST PARAMETERS: 10 µM unless noted
- Procedure: Growth inhibition of the UO-31 human tumor cell line is measured as a screen for anti-cancer activity. Cells are grown in 96 well plates and exposed to the test compound for 48 hours. Compounds are tested at a single concentration, which is 10^-5 M for most compounds. The reported endpoint is percent growth (GI% or GIPRCNT), where numbers from 0 - 100% represent growth inhibition, and numbers from -100% - 0 represent cell death. For example, a value of 40 represents 60% growth inhibition. […]
Compounds without any hit were thinned out: in the full panel of roughly 83,000, 20% have a hit.
Tick Met if growth is 60% or greater. Tick Not met if growth is less than 60%.

query: Determine whether measured growth meets or exceeds 60% for Cc1ccc(-c2c3c(N)c4c(nc3nc3c2c(C)nn3-c2ccccc2)CCC4)cc1
result: Not met

query: Has CC(=O)N1N=C(c2ccc(C(F)(F)F)cc2)CC1c1ccc2c(c1)OCO2 (stereo not drawn) a recorded growth greater than or equal to 60%?
result: Not met

query: Say whether O[N+]1=CC=CCC1=S.On1ccccc1=S.[Zn] shows growth of 60% or more.
result: Not met

query: Given N#Cc1ccc(-c2csc(Nc3ccc4nc5n(c(=O)c4c3)CCC5)n2)cc1 , state whether its growth is at least 60%.
result: Met

query: Identify whether the reported growth of the following compound is 60% or greater: CC(=O)OC1Oc2cc(C)c(C)cc2-c2oc(=O)c(-c3ccccc3)cc21 (stereo not drawn)
result: Not met

More entries:
query: Please indicate if the recorded growth for COc1ccc(-c2c3c(N)nc(-c4ccncc4)nc3nc3c2c(C)nn3-c2ccccc2)cc1 meets or exceeds 60%.
result: Met

query: Does O=c1ccn(C2CC=C(CO)O2)c(=O)[nH]1 (stereo not drawn) have a reported growth of at least 60%?
result: Met

query: // inclusive: growth at least 60%? input: Clc1ccc(C2c3ccccc3-c3nccn32)c(Cl)c1 (stereo not drawn)
result: Met

* * *

- Tested on: BT-549 breast
- ASSAY SUMMARY: NCI-60 one-dose screen, 48 h (100 = growth as untreated, 0 = no growth, -100 = all killed)
- TEST PARAMETERS: 10 µM unless noted
About 83,000 compounds went through this panel and 20% of them were active in at least one assay; those are over-represented in the sample as a whole. Activity calls are given as the source filed them. How the source made its calls: active means growth percent below 10; inactive means the rest.
# growth annotations

Sample records with growth:
query: Provide the documented growth with BT-549 breast as the system for Nc1ccn(C2O[C@H](CO)[C@@H](O)[C@@H]2O)c(=O)n1 (some centres not stated)
result: 81.2% (inactive)

query: Form: Entry = O=C1Nc2ccc(Cl)cc2[C@@](C#CC2CC2)(C(F)(F)F)O1 | System = BT-549 breast | growth = ____
result: 117% (inactive)

query: BT-549 breast / growth / COc1ccc(CNC(=O)c2c(C)n([O-])c3ccc(OC)cc3[n+]2=O)cc1 : value?
result: 83.5% (inactive)

Further cases:
query: Form entry - test system: BT-549 breast; read-out: growth; molecule: Cc1ccc(/C=C/C(=O)c2ccc(F)cc2)s1
result: 76.7% (inactive)

query: Please provide the recorded growth for COc1ccc2cc(-c3nc4ccccc4[nH]3)c(=O)oc2c1 , tested on BT-549 breast.
result: 101% (inactive)

* * *

- Tested on: HCC-2998 colon
- ASSAY SUMMARY: NCI-60 one-dose screen, 48 h
- TEST PARAMETERS: 10 µM unless noted
- Method: Growth inhibition of the HCC-2998 human tumor cell line is measured as a screen for anti-cancer activity. Cells are grown in 96 well plates and exposed to the test compound for 48 hours. Compounds are tested at a single concentration, which is 10^-5 M for most compounds. The reported endpoint is percent growth (GI% or GIPRCNT), where numbers from 0 - 100% represent growth inhibition, and numbers from -100% - 0 represent cell death. For example, a value of 40 represents 60% growth inhibition. […]
About 83,000 compounds went through this panel and 20% of them were active in at least one assay; those are over-represented in the sample as a whole. Active and inactive are the calls of the source. Rule for the calls: active = growth percent below 10; inactive = the rest.
Use one of these outcomes when replying: active, inactive

Example entries and their recorded answers appear below.
query: Record request — test call for CSc1nc2nc3c(nc2c(=O)n1C)C(=O)c1ccccc1C3=O
result: active

query: Lab log entry: CC(NNC(=S)N1CCCCCC1)c1ccc2ccccc2n1 (stereo unspecified) — outcome as called in the assay?
result: inactive

query: # outcome recorded in this test, key = O=C1/C(=C\c2coc3ccccc3c2=O)c2ccccc2N1c1c(Cl)cccc1Cl
result: inactive

***
query: Short answer needed: outcome of this test for COc1cccc(N2CCN(c3cccc(C)n3)CC2)c1 ?
result: inactive

query: I'd appreciate the recorded outcome for O=C(Oc1cccc2ccccc12)c1ccccc1C(=O)c1ccccc1 from this test.
result: inactive

query: What outcome does the record of this test show for CC1CC=CCC1C1OCC(C)(C)CO1 (stereo unspecified) ?
result: inactive

query: What did the test return for O=Cc1ncc(-c2ccc(C(F)(F)F)cc2)c(NC2CCCCCC2)n1 ?
result: active

query: Fill in: this test's call for O=c1ccn(C2CC=C(CO)O2)c(=O)[nH]1 (stereo unspecified) is ___
result: inactive

query: Name the outcome recorded for CCOC(=O)C(C(=O)OCC)C1CCCCC1 in the assay.
result: inactive

query: Assay outcome for CCCCCc1c(C)[nH]c(/C=C2\N=C(c3ccc[nH]3)C=C2OCc2ccccc2)c1C : what was it?
result: active

query: Hi, do you know how COc1cc(C2CC(c3ccc(C)cc3)=NN2C=O)ccc1OCCN(C)C (stereo unspecified) came out in this test?
result: inactive

* * *

- Test system: SF-539 CNS
- ASSAY SUMMARY: NCI-60 one-dose screen, 48 h
- TEST PARAMETERS: 10 µM unless noted
This is part of a sample that, as a whole, favours compounds with a hit. Of some 83,000 tested, about 20% had one in any assay. Activity calls are given as the source filed them. The calls were made as follows: active = growth percent below 10; inactive = the rest.
Choose one outcome from this list and give only that: active, inactive

Consider the following illustrative entries.
query: Assay outcome for O=[N+]([O-])c1ccc(NS(=O)(=O)c2ccc(Cl)c(Cl)c2)cc1 : what was it?
result: inactive

query: What is the recorded call for this molecule in the test? O=C(O)CCNS(=O)(=O)c1ccc(-c2ccccc2)cc1
result: inactive

query: I would be grateful if you could indicate the recorded call for CC(=O)c1nn(-c2ccccc2)c(=Nc2ccccc2)cc1C .
result: inactive

query: State the result this test recorded for CCCCOP(=O)(OCCCC)C(C(=O)OCC)C(CC(=O)OCC)C(=O)OCC (stereo not given) .
result: inactive

query: In this assay, the call recorded for Cc1cc(C)c(C(=O)c2cccs2)c(C)c1 was what?
result: inactive

***
query: Given NC(=O)c1cc(Cl)ccc1NC(=O)c1ccccc1-c1ccccc1 , state the outcome it received in this test.
result: active

query: Outcome logged for COc1ccc(C(=O)/C=C/c2ccc(C)cc2)cc1OC in this assay:
result: inactive

* * *

- System: SK-MEL-28 melanoma
- ASSAY SUMMARY: NCI-60 one-dose screen, 48 h
- TEST PARAMETERS: 10 µM unless noted
This is part of a sample that, as a whole, favours compounds with a hit. Of some 83,000 tested, about 20% had one in any assay. Activity calls are given as the source filed them. Rule for the calls: active = growth percent below 10; inactive = the rest.
Reply using exactly one outcome from active, inactive

Here are 5 compounds together with their reported answers.
query: Tell me the recorded outcome of this test for COP(=O)(OC)C(c1ccccc1)(c1ccccc1)c1ccccc1 .
result: inactive

query: Dear colleague, could you share the recorded outcome for COc1ccc(OC)c(CCn2cncc2-c2c[nH]c3cc(Br)ccc23)c1 when you have a moment?
result: inactive

query: Kindly provide the recorded test outcome for the following compound: O=C(Nc1ccc(Cl)cc1)Nc1ccccc1CNc1nc(Nc2ccc(OCCN3CCCC3)cc2)ncc1Cl
result: active

query: What call does the record list for COC(=O)[C@H](Cc1cn(C)cn1)NC(=O)[C@@H](NC(=O)Nc1cc(C(F)(F)F)cc(C(F)(F)F)c1)C(C)C ?
result: active

query: Write down the call the test reported for this compound. Item: COc1cc(-c2nc3sc4c(c3c(=O)[nH]2)CCCCCC4)cc(OC)c1OC
result: inactive

Further cases:
query: Hi, sorry to bother you, what did the test record for c1ccc(-c2nc(Nc3nccnn3)c3ccccc3n2)cc1 ?
result: inactive

query: Assay result, entry Cc1ccc2nc(-c3ccc(N(C)C)c(Br)c3)cn2c1 — outcome?
result: inactive

query: Per the assay record, what outcome was assigned to COc1cccc(-c2nc3cc(NC(=O)c4ccc(Cl)c(C#N)c4)ccc3o2)c1 ?
result: active

query: Status in this test for CCOC1Oc2ccccc2C(=O)/C1=N/c1nccs1 (configuration not stated) ?
result: inactive

query: Which result was noted for this compound in the test: CCCCCCCCCCOC(C)=O
result: inactive

query: Short answer needed: outcome of this test for COc1cc(C2=NN(C=O)C(c3cccc(Nc4ccnc5cc(Cl)ccc45)c3)C2)cc(OC)c1OC (configuration not stated) ?
result: inactive

query: Outcome? N#Cc1ccccc1C#Cc1ccccc1C#Cc1ccc(OCCCCCCOc2ccc(C#Cc3ccccc3C#Cc3ccccc3C#N)cc2)cc1
result: inactive
